Experimental Details: BSK_3C_VCAM1: BioMAP Diversity Plus: 3C Assay for Vascular cell adhesion molecule 1 (VCAM1) Biomarker Activity (AID 2282999)
Conditions: BioMAP 3C HUVEC, VCAM1 ELISA, cytokine-stimulated; actives raise or lower the signal
Calls of active or inactive are those of the source. The calls were made as follows: active = hit-call score of the fitted dose curve at least 0.9, where 1 is the maximum; inactive = score below 0.9.
# output must be one of active, inactive

- Compound: "CCOc1cccc(-n2cc(C(=O)N3CCN(c4cc(C(=O)O)c5ccccc5c4)CC3)nc2-c2ccc(C)cc2)c1"
  Qualitative Label: "active"
- Compound: "CN(C)c1ccc(Cc2ccc(N(C)C)cc2)cc1"
  Qualitative Label: "inactive"
- Compound: "CCOC(=O)COc1ccc2c(c1)CC(NCC(O)c1cccc(Cl)c1)CC2 (stereo unspecified)"
  Qualitative Label: "active"

Ask | Each compound tested received a call. Report the one for COC(=O)c1c(Cl)c(Cl)c(C(=O)OC)c(Cl)c1Cl .
Reply | inactive

Ask | Each compound tested received a call. Report the one for O=C1CCC(N2C(=O)c3ccccc3C2=O)C(=O)N1 (stereo unspecified) .
Reply | inactive

Ask | Each compound tested received a call. Report the one for Cc1ccc(C)c(O)c1 .
Reply | inactive

====

Read-out: Plasminogen activator inhibitor-1 (PAI1), SERPINE1 (gene 5054)
Experimental Details: BSK_BE3C_PAI1: BioMAP Diversity Plus: BE3C Assay for Plasminogen activator inhibitor-1 (PAI1) Biomarker Activity (AID 2283037)
Conditions: primary human bronchial epithelial cells; actives raise or lower the signal
Active and inactive are the calls of the source. The calls were made as follows: active = hit-call score of the fitted dose curve at least 0.9, where 1 is the maximum; inactive = score below 0.9.
# output must be one of active, inactive

Worked cases, answers included:
- Compound: "O=C1OC(=O)C2C3C=CC(C3)C12 (stereo unspecified)"
  Qualitative Label: "inactive"
- Compound: "CCCN(C1CCN(C(=O)C2CCNCC2)CC1)[C@@H]1CCc2ccc(OC)cc2C1"
  Qualitative Label: "inactive"
- Compound: "C1N2CN3CN1CN(C2)C3"
  Qualitative Label: "inactive"

Ask | Each compound tested received a call. Report the one for CCCCCCCCO .
Reply | inactive

Ask | Each compound tested received a call. Report the one for Cn1cnc([N+](=O)[O-])c1Sc1ncnc2nc[nH]c12 .
Reply | inactive

Ask | Each compound tested received a call. Report the one for CC(=O)c1ccc2c(c1)[C@H](NC(=O)c1ccc(F)cc1)[C@@H](O)C(C)(C)O2 .
Reply | inactive

Ask | Each compound tested received a call. Report the one for CCCCCCCCCCCCc1ccccc1 .
Reply | inactive

Ask | Each compound tested received a call. Report the one for On1ccccc1=S .
Reply | active

====

Read-out: TIMP metallopeptidase inhibitor 2 (TIMP2), TIMP2 (gene 7077)
Experimental Details: BSK_KF3CT_TIMP2: BioMAP Diversity Plus: KF3CT Assay for TIMP metallopeptidase inhibitor 2 (TIMP2) Biomarker Activity (AID 2283071)
Conditions: primary human keratinocytes with fibroblasts; actives raise or lower the signal
Activity calls are given as the source filed them. How the source made its calls: active means hit-call score of the fitted dose curve at least 0.9, where 1 is the maximum; inactive means score below 0.9.
# output must be one of active, inactive

- Compound: "CC(C)=CCC/C(C)=C\\CO"
  Qualitative Label: "inactive"
- Compound: "CC(C)=CCCC(C)=CC=O"
  Qualitative Label: "inactive"
- Compound: "C1N2CN3CN1CN(C2)C3"
  Qualitative Label: "inactive"
- Compound: "COc1ccc2sc(C(=O)Nc3nnn[nH]3)c(OC(C)C)c2c1"
  Qualitative Label: "active"
- Compound: "O=C(O)c1cccc(N(Cc2cccnc2)c2ccc(OC(F)F)c(OC(F)F)c2)c1"
  Qualitative Label: "inactive"
- Compound: "CCOC(=O)c1ccc(C2CCC(NC[C@H](O)COc3ccc(O)c(NS(C)(=O)=O)c3)CC2)cc1 (stereo not given in full)"
  Qualitative Label: "inactive"
- Compound: "C1=CCCC=CCCC=CCC1"
  Qualitative Label: "inactive"
- Compound: "O=C(O)c1cc(N=Nc2ccc(S(=O)(=O)Nc3ccccn3)cc2)ccc1O"
  Qualitative Label: "inactive"
- Compound: "O=C(NS(=O)(=O)/C=C/c1ccccc1)c1ccc(F)cc1Cl"
  Qualitative Label: "active"
- Compound: "Clc1nc(Cl)c(Cl)c(Cl)c1Cl"
  Qualitative Label: "inactive"

Ask | Each compound tested received a call. Report the one for Cn1c(=O)cc(Oc2ccc(F)cc2F)c2cnc(NCC(C)(C)O)nc21 .
Reply | inactive

Ask | Each compound tested received a call. Report the one for CC(C)CCO .
Reply | inactive

Ask | Each compound tested received a call. Report the one for O=C(O)CC(O)C(=O)O (stereo not given) .
Reply | inactive

Ask | Each compound tested received a call. Report the one for Nc1cccc(N)c1 .
Reply | inactive

Ask | Each compound tested received a call. Report the one for Nc1ccc(Nc2ccccc2)cc1 .
Reply | inactive

====

Experimental Details: APR_HepG2_CellCycleArrest_24hr: Apredica 24-hour HepG2 Assay for Cell Cycle Arrest (AID 2282905);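 also: cell cycle arrest scored as ratio of 2N to 4N nuclear DNA content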
Conditions: imaging, actives raise or lower the signal
Activity calls are given as the source filed them. How the source made its calls: active means hit-call score of the fitted dose curve at least 0.9, where 1 is the maximum; inactive means score below 0.9.
# output must be one of active, inactive

Worked cases, answers included:
- Compound: "CC(C)CCCCCCOC(=O)c1ccc(C(=O)OCCCCCCC(C)C)c(C(=O)OCCCCCCC(C)C)c1"
  Qualitative Label: "inactive"
- Compound: "COc1cccc(-c2ccc(/C=C\\CN3CCCCCC3)cc2Cl)c1"
  Qualitative Label: "active"
- Compound: "CCCC(=O)OCC"
  Qualitative Label: "inactive"
- Compound: "CC(=O)OCCC(C)C"
  Qualitative Label: "inactive"

Ask | Each compound tested received a call. Report the one for O=C(OC[C@H]1O[C@@H](OC(=O)c2cc(O)c(O)c(OC(=O)c3cc(O)c(O)c(O)c3)c2)[C@H](OC(=O)c2cc(O)c(O)c(OC(=O)c3cc(O)c(O)c(O)c3)c2)[C@@H](OC(=O)c2cc(O)c(O)c(OC(=O)c3cc(O)c(O)c(O)c3)c2)[C@@H]1OC(=O)c1cc(O)c(O)c(OC(=O)c2cc(O)c(O)c(O)c2)c1)c1cc(O)c(O)c(OC(=O)c2cc(O)c(O)c(O)c2)c1 .
Reply | inactive

Ask | Each compound tested received a call. Report the one for CC(C)CC(C)(O)C#CC(C)(O)CC(C)C (configuration not stated) .
Reply | inactive

Ask | Each compound tested received a call. Report the one for CC1=CC(=O)CC(C)(C)C1 .
Reply | inactive

====

Experimental Details: BSK_4H_Eotaxin3: BioMAP Diversity Plus: 4H Assay for Eotaxin 3 Biomarker Activity (AID 2283000)
Conditions: primary human endothelial cells (HUVEC); actives raise or lower the signal
Active and inactive are the calls of the source. The calls were made as follows: active = hit-call score of the fitted dose curve at least 0.9, where 1 is the maximum; inactive = score below 0.9.
# output must be one of true (1) (active), false (0) (inactive)

Worked cases, answers included:
- Line Notation: "CC[C@H]1OC(=O)[C@H](C)[C@@H](O[C@H]2C[C@@](C)(OC)[C@@H](O)[C@H](C)O2)[C@H](C)[C@@H](O[C@@H]2O[C@H](C)C[C@H](N(C)C)[C@H]2O)[C@](C)(O)C[C@@H](C)C(=O)[C@H](C)[C@@H](O)[C@]1(C)O"
  Qualitative Label: "false (0)"
- Line Notation: "CC1=CC(=O)CC(C)(C)C1"
  Qualitative Label: "false (0)"
- Line Notation: "C=CC(=C)CCC=C(C)C"
  Qualitative Label: "false (0)"
- Line Notation: "Cc1[nH]cnc1C[C@H]1CCc2c(C)c3ccccc3n2C1=O"
  Qualitative Label: "true (1)"
- Line Notation: "Cc1ccc(C)c(O)c1"
  Qualitative Label: "false (0)"
- Line Notation: "CC(C)=CCCC(C)=CC=O"
  Qualitative Label: "false (0)"
- Line Notation: "On1ccccc1=S"
  Qualitative Label: "true (1)"
- Line Notation: "O=C(O)c1cccc(N(Cc2cccnc2)c2ccc(OC(F)F)c(OC(F)F)c2)c1"
  Qualitative Label: "true (1)"

Ask | Each molecule tested received a call. Report the one for CC(=O)OCCC(C)C .
Reply | false (0)

Ask | Each molecule tested received a call. Report the one for CC[C@H]1CC[C@H](NCc2cc3c(cc2OC)[C@H]2C[C@H]2C(=O)N3C)[C@H](c2ccccc2)N1 .
Reply | false (0)

====

Read-out: growth arrest and DNA damage 45 (GADD45A), GADD45A (gene 1647)
Experimental Details: LTEA_HepaRG_GADD45A: Life Technologies and Expression Analysis (LTEA) Assay for growth arrest and DNA damage 45 (GADD45A) using HepaRG (AID 2283458)
Conditions: mRNA level, 48 h; actives raise or lower the signal
The source made the active and inactive calls. Rule for the calls: active = hit-call score of the fitted dose curve at least 0.9, where 1 is the maximum; inactive = score below 0.9.
# output must be one of y for active, n for inactive

Worked cases, answers included:
- Molecule: "COC(=O)CC(=O)OC"
  Qualitative Label: "n"
- Molecule: "CC(O)CN(CCN(CC(C)O)CC(C)O)CC(C)O (stereo not given)"
  Qualitative Label: "n"
- Molecule: "Nc1cccc(N)c1"
  Qualitative Label: "n"
- Molecule: "COC(=O)c1c(Cl)c(Cl)c(C(=O)OC)c(Cl)c1Cl"
  Qualitative Label: "n"
- Molecule: "CC(C)=CCCC(C)=CC=O"
  Qualitative Label: "n"
- Molecule: "Cn1c(=O)cc(Oc2ccc(F)cc2F)c2cnc(NCC(C)(C)O)nc21"
  Qualitative Label: "n"

Ask | Each molecule tested received a call. Report the one for CC(=O)OCCC(C)C .
Reply | n

Ask | Each molecule tested received a call. Report the one for Clc1nc(Cl)c(Cl)c(Cl)c1Cl .
Reply | n

Ask | Each molecule tested received a call. Report the one for NC(=O)NO .
Reply | n

Ask | Each molecule tested received a call. Report the one for O=C(CCCCCCCCc1cccnc1)N1CCC(C=C(c2ccccc2)c2ccccc2)CC1 .
Reply | y

Ask | Each molecule tested received a call. Report the one for CC(=O)OC[C@H]1O[C@@](COC(C)=O)(O[C@H]2O[C@H](COC(C)=O)[C@@H](OC(C)=O)[C@H](OC(C)=O)[C@H]2OC(C)=O)[C@@H](OC(C)=O)[C@@H]1OC(C)=O .
Reply | n

Ask | Each molecule tested received a call. Report the one for COc1ccc(/C=C/S(=O)(=O)NC(=O)c2ccc(C)cc2Cl)cc1 .
Reply | n

Ask | Each molecule tested received a call. Report the one for O=C(NS(=O)(=O)/C=C/c1ccccc1)c1ccc(F)cc1Cl .
Reply | n

Ask | Each molecule tested received a call. Report the one for CCn1nc(Cc2ccccc2)cc1C1CCN(C[C@H]2C[C@H](N(C)[C@@H](C(=O)O)C(C)C)C[C@@H]2c2cccc(F)c2)CC1 .
Reply | n

Ask | Each molecule tested received a call. Report the one for CC[C@H]1OC(=O)[C@H](C)[C@@H](O[C@H]2C[C@@](C)(OC)[C@@H](O)[C@H](C)O2)[C@H](C)[C@@H](O[C@@H]2O[C@H](C)C[C@H](N(C)C)[C@H]2O)[C@](C)(O)C[C@@H](C)C(=O)[C@H](C)[C@@H](O)[C@]1(C)O .
Reply | n

Ask | Each molecule tested received a call. Report the one for CC[C@H]1CC[C@H](NCc2cc3c(cc2OC)[C@H]2C[C@H]2C(=O)N3C)[C@H](c2ccccc2)N1 .
Reply | n
